Measured Target: Chromobox protein homolog 1 (Homo sapiens) (UniProt P83916)
Sequence (P83916 whole entry, looked up): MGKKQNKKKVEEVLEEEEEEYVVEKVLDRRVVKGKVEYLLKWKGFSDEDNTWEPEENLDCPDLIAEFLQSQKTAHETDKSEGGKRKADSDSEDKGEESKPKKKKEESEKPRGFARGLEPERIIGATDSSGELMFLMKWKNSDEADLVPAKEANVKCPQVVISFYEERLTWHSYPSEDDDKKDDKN
Protocol Summary: qHTS Validation Assay for Inhibitors of HP1-beta Chromodomain Interactions with Methylated Histone Tails (AID 488953); also: nearly all actives have a fitted effect of over 50% in size
Test Parameters: HP1-beta chromodomain / methylated histone peptide binding assay; series mostly up to 114 µM
Records with an inconclusive call do not appear. The source made the active and inactive calls. Calls follow the shape of the dose curve; as a rule, active = well fitted inhibition curve with a large enough effect; inconclusive = small, poorly fitted or top-dose-only effect; inactive = no such curve, though single readings can be large or run the other way.
Your answer must be one of the following: TRUE for active, FALSE for inactive

# count of solved cases: 3
Cc1cc([C@@H]2CCCN2C)on1 ... FALSE
CN(N=O)c1ccc(O)c(O)c1 ... TRUE
C[C@H](Cc1ccc2c(c1)OC(C(=O)O)(C(=O)O)O2)NC[C@H](O)c1cccc(Cl)c1 ... FALSE

In the following, a different compound is considered.
Lab log entry: "O=C1C=CC(=O)C=C1" — outcome as called in the assay? FALSE

* * *

Protocol Summary: qHTS for differential inhibitors of proliferation of Plasmodium falciparum line GB4 (AID 1816);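 also: parasite growth measured after 72 h incubation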
Test Parameters: Plasmodium falciparum GB4 proliferation inhibition; series mostly up to 28.7 µM
Records with an inconclusive call do not appear. The source made the active and inactive calls. Calls come from the whole dose curve; as a rule, active = well fitted curve in the direction sought with a large enough effect; inconclusive = small, poorly fitted or top-dose-only effect, or another doubt; inactive = no such curve, though single readings can be large or run the other way.
Log the outcome using a class from active, inactive

Cc1[nH]c2ccc(O)cc2c1CCN ... inactive
CC(=O)c1c(O)c(C)c(O)c(Cc2c(O)c3c(c(C(=O)/C=C/c4ccccc4)c2O)OC(C)(C)C=C3)c1O ... active
NC(=O)c1ccc(OCC(O)CN2CC=C(c3ccc(F)cc3)CC2)cc1 (stereo not given) ... active
CCCCCCC(C)(C)c1ccc([C@@H]2C[C@H](O)CC[C@H]2CCCO)c(O)c1 ... active
CCCN1CCCC2Cc3[nH]ncc3CC21 (stereo not given) ... inactive
CCCN(CCC)[C@@H]1CCc2cccc(O)c2C1 ... active

I would be grateful if you could indicate the recorded call for "N#CC(C#N)=Cc1cc(O)c(O)c(O)c1" . active

* * *

Test system: CP201
Protocol Summary: qHTS profiling for inhibitors of Plasmodium falciparum proliferation (AID 504749);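 also: 0% = DMSO vehicle and full inhibition = artemisinin control; nearly all actives have a fitted effect of over 60% in size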
Test Parameters: P. falciparum in erythrocytes, SYBR Green DNA, 72 h; series mostly up to 28.7 µM
Results filed as inconclusive are left out. Calls of active or inactive are those of the source. The call rests on the fitted dose curve; in most records, active means well fitted inhibition curve with a large enough effect; inconclusive means small, poorly fitted or top-dose-only effect; inactive means flat fitted curve, though single readings scatter.
Test Readout: outcome

CCON=O ... inactive
C[C@]12CCC(=O)C[C@@H]1CC[C@@H]1[C@@H]2CC[C@]2(C)[C@@H](O)CC[C@@H]12 ... inactive
[O]=[Cr](=[O])([OH])[O][Cr](=[O])(=[O])[OH] ... inactive
CC(C)CCON=O ... inactive

Respectfully, I request outcome for each entry included below.
1. CC(N)Cc1ccc(O)cc1 (stereo not given)
2. C[N+]1(C)C2CCC1CC(OC(=O)c1c[nH]c3ccccc13)C2 (stereo not given)

1: inactive; 2: inactive

* * *

I'd appreciate it if you could supply max response values for the items below.
Protocol Summary: qHTS assay for small molecule agonists of the antioxidant response element (ARE) signaling pathway measured by Nrf2-dependant transcriptional activity - cell viability counter screen (AID 720653); also: % is scaled to controls: 0 for no effect and ±100 for the full control effect
Test Parameters: ARE-bla HepG2 viability, CellTiter-Glo ATP luminescence, 16 h; stronger effect = lower value
Results filed as inconclusive are left out.
Numbers only, in %.

Use the examples below as a reference point.
N#CN ... -18.5
O=C1C[C@@H]2OCC=C3CN4CC[C@]56c7ccccc7N1[C@H]5[C@H]2[C@H]3C[C@H]46 ... -11.2

For each of the molecules below, note its max response.
1. S=C=S
2. COC1=CC(=O)O[C@@H](/C=C/c2ccccc2)C1
3. COc1ccc2c(c1OC)C(=O)OC2C1c2cc3c(cc2CCN1C)OCO3 (stereo not given)
4. O=[N+]([O-])C(Br)(CO)CO
5. O=Cc1ccco1

-6.45
4.02
-15.1
-12.6
-4.31

Please supply max response for each of the following items, keeping them in order.
1. O=C1CCO1
2. [O]=[Cd]
3. [Cl-].[Cl-].[Hg+2]
4. ClCC1CO1 (stereo not given)
5. Clc1ccccc1Cl
6. CC(C)Nc1ccc(Nc2ccccc2)cc1
7. O=C(NCNC(=O)NC1C(=O)NC(=O)N1CO)NC1C(=O)NC(=O)N1CO (stereo not given)
8. O=c1[nH]c(=O)n(Cl)c(=O)n1Cl

1: 5.4; 2: -0.962; 3: -13.5; 4: -2.98; 5: 1.42; 6: -21.1; 7: 1.81; 8: -11

* * *

Measured Target: Cytochrome P450 1A2 (Homo sapiens) (UniProt P05177)
Sequence (P05177 whole entry, looked up): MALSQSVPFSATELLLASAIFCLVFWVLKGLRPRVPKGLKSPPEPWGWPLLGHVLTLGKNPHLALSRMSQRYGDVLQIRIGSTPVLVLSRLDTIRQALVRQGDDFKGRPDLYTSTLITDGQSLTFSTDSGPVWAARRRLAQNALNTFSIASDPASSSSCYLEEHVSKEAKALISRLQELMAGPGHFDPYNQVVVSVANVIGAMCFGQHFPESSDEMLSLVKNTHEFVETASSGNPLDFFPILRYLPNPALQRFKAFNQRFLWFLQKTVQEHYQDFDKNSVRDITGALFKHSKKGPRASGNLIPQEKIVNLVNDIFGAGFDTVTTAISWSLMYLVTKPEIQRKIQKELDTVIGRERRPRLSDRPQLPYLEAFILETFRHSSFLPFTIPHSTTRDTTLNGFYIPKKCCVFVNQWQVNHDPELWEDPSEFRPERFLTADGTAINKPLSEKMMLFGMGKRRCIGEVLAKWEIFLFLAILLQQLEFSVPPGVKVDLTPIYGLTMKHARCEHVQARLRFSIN
Protocol Summary: p450-cyp1a2 (AID 410)
Test Parameters: recombinant CYP1A2, luciferin-ME demethylation, luminescence; series mostly up to 57 µM
Inconclusive results are not listed. Active and inactive are the calls of the source. The call rests on the fitted dose curve.
Thanks in advance; please answer with one of these: yes (1) = active, no (0) = inactive

C[C@@H]1[C@@H]2Cc3ccc(O)cc3[C@@]1(C)CCN2CC1CC1 ... no (0)
OCc1cnc[nH]1 ... no (0)
Cc1sc2ccccc2c1CC1=NCCN1 ... yes (1)

What is the recorded call for this molecule in the test? "COc1ccc2[nH]c3c(c2c1)CCNC3" yes (1)

# repeat for "O=C(O)c1cc[c]([Hg][Cl])cc1" yes (1)

Likewise for "CCCN(CCC)CCc1c[nH]c2ccc(C(N)=O)cc12" ? yes (1)

* * *

Protocol Summary: qHTS for differential inhibitors of proliferation of Plasmodium falciparum line 3D7 (AID 1876); also: potency is read from the fitted curve at half-maximal effect
Test Parameters: P. falciparum 3D7 proliferation inhibition; series mostly up to 28.7 µM
Records with an inconclusive call do not appear. Calls of active or inactive are those of the source. The call rests on the fitted dose curve; in most records, active means well fitted curve in the direction sought with a large enough effect; inconclusive means small, poorly fitted or top-dose-only effect, or another doubt; inactive means no such curve, though single readings can be large or run the other way.
Test Readout: Potency

C=CCN1CCC23c4c5ccc(O)c4O[C@H]2C(=O)CC[C@@]3(O)C1C5 (stereo partly drawn) ... inactive
O=S1(=O)N(CCN2CC=C(c3c[nH]c4cc(F)ccc34)CC2)c2cccc3c2N1CCC3 ... 0.501 µM (active)
Oc1ccc2c3c1O[C@H]1c4oc5ccccc5c4C[C@@]4(O)C(C2)N(CC2CC2)CCC314 (stereo partly drawn) ... 7.94 µM (active)
COc1ccc2c(c1)/C(=C/c1cnc[nH]1)C(=O)N2 ... 12.6 µM (active)
C[C@H](N)CN1CCc2ccc(Br)cc21 ... 8.91 µM (active)
CCN(CC)c1ncnc2c1ncn2[C@@H]1O[C@H](COP(=O)(O)OP(=O)(O)C(Br)(Br)P(=O)(O)O)[C@@H](O)[C@H]1O ... inactive

Please supply Potency for each of the following items, keeping them in order.
1. NC(CCCCCP(=O)(O)O)C(=O)O (stereo not drawn)
2. OC1CCCCC1N1CCC(c2ccccc2)CC1 (stereo not drawn)

["inactive", "inactive"]

Parameters: items (list). Returns: Potency for each item.
1. COc1ccc2c(c1OC)C(=O)OC2C1c2cc3c(cc2CCN1C)OCO3 (stereo not drawn)
2. CN1C2CCC1CC(OC(c1ccccc1)c1ccc(Cl)cc1)C2 (stereo not drawn)
3. CCCN(CCC)[C@@H]1CCc2cccc(O)c2C1
4. CO[C@H]1CC=C2CCN3CCC4=C(CC(=O)OC4)[C@]23C1
5. CCCn1c(C)c(C(=O)c2ccc3ccccc3c2)c2ccccc21
6. C[C@H](Cc1ccc2c(c1)OC(C(=O)O)(C(=O)O)O2)NC[C@H](O)c1cccc(Cl)c1

1. inactive
2. 2.24 µM (active)
3. 10 µM (active)
4. inactive
5. 10 µM (active)
6. inactive

Would you mind giving Potency for every molecule in the list below?
1. CCOC(=O)c1ncn2c1[C@@H]1CCCN1C(=O)c1cc(OC)ccc1-2
2. Oc1ccc2c3c1O[C@H]1c4[nH]c5ccccc5c4C[C@@]4(O)C(C2)N(CC2CC2)CCC314 (stereo partly drawn)
3. NC(Cc1ccc(N(CCCl)CCCl)cc1)C(=O)O (stereo not drawn)
4. c1ccc2c(c1)[I+]c1ccccc1-2
5. Cc1o[nH]c(=O)c1CC(N)C(=O)O (stereo not drawn)
6. CC(N)c1cccc(Cl)c1Cl (stereo not drawn)

["inactive", "10 µM (active)", "10 µM (active)", "0.0708 µM (active)", "inactive", "inactive"]

List the reported Potency of each molecule below.
1. CNc1ccc2oc(C[C@H]3O[C@@]4(CC[C@H]3C)O[C@H]([C@H](C)C(=O)c3ccc[nH]3)[C@H](C)C[C@H]4C)nc2c1C(=O)O
2. CC(C)CC(NP(=O)(O)O[C@@H]1O[C@@H](C)[C@H](O)[C@@H](O)[C@H]1O)C(=O)NC(Cc1c[nH]c2ccccc12)C(=O)O (stereo partly drawn)

1. 1 µM (active)
2. inactive

* * *

Give max response for every item shown.
Tested on: KB-3-1
Protocol Summary: Cytotoxic Profiling of Annotated Libraries Using Quantitative High-Throughput Screening (AID 1296008); also: % is scaled to controls: 0 for no effect and ±100 for the full control effect; nearly all actives have a fitted effect of over 60% in size
Test Parameters: Five cell lines viability, CellTiter-Glo ATP luminescence, 48-72 h; stronger effect = lower value
Results filed as inconclusive are left out.
Numbers only, in %.

// below: answered molecules
CC(=O)OC1CC(O)C2(C)C(CC(OC(C)=O)C3(C)C2CCC2(C)C(c4ccoc4)C(=O)C4OC423)C1(C)C (centres undefined) ... 8.18
O=[N+]([O-])c1cc(I)c(O)c(I)c1 ... -0.558

Here are 7 molecules. What values of max response were reported for them?
1. O=[N+]([O-])c1ccc(F)c([N+](=O)[O-])c1
2. C[C@]12C=CC(=O)C=C1CC[C@@H]1[C@@H]2CC[C@]2(C)OC(=O)CC[C@@H]12
3. c1cc2c(c(NC3=NCCN3)c1)CCCC2
4. CC(N)Cc1ccc(O)cc1 (centres undefined)
5. CCC1(C)CC(=O)NC(=O)C1
6. CCON=O
7. O=C(CCl)c1ccc(Oc2ccc(C(=O)CCl)cc2)cc1

1: -19.8; 2: 5.64; 3: -8.19; 4: -5.37; 5: 4.64; 6: -2.91; 7: 0.148

Record max response per entry; entries follow.
1. CC[C@H]1CN2CC[C@H]1C[C@@H]2[C@@H](O)c1ccnc2ccc(OC)cc12
2. COc1ccc2c3c1O[C@H]1C(=O)CC[C@H]4[C@@H](C2)N(C)CC[C@]314
3. C#CC(C)(O)CC (centres undefined)

1: 5.11; 2: 8.34; 3: -2.82

Count: 2. Required value per item: max response.
1. CC(C)=C1CC[C@]23CO[C@H](C2)[C@@](O)(C(=O)O)CCC13 (some centres undefined)
2. C[C@]12CC[C@H]3[C@@H](CCC4=C(Cl)C(=O)CC[C@@]43C)[C@@H]1CC[C@@H]2O

1: 4.44; 2: 3.69

FYI, the data here is from PubChem BioAssay (NCATS).
